Please provide measured abundance fitness for the entries that follow.
B1: Transcription elongation factor A N-terminal and central domain-containing protein, residues 30 to 77; numbered along this chain, Q8N8B7 (parent)
chain: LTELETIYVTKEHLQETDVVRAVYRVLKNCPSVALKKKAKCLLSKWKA

Variants of: B1
EXPERIMENT SUMMARY: abundance fitness (aPCA) (normalised: wild type 0, dead -1); higher = more abundant; growth selection in yeast, the domain comes from the species named
CONDITION PARAMETERS: Homo sapiens
Give bare numbers.

# example entries with known answers
                              sequence_code  experimental_result
0  LTELETILVTKEHLQETDVVRAVYRVLKNCPSVALKKKAKCLLSKWKA [Y8L]               -0.233
1  LTEAETIYVTKEHLQETDVVRAVYRVLKNCPSVALKKKAKCLLSKWKA [L4A]                 0.17
2  LTELETIYVTKEHLQETDVVRAVYRVLKNCPSVALKKKAKCLLSKWHA [K47H]               -0.268
3  LTELETIYVTKEHLNETDVVRAVYRVLKNCPSVALKKKAKCLLSKWKA [Q15N]               -0.388
4  LTELETIYVTKEHLQETDVVREVYRVLKNCPSVALKKKAKCLLSKWKA [A22E]               -0.328

Provide abundance fitness for all items below, preserving their order.
1. LTELETIYVTKEHLQETDVVRAVYFVLKNCPSVALKKKAKCLLSKWKA [R25F]
2. LTELETIYVTKEHLQETDVVTAVYRVLKNCPSVALKKKAKCLLSKWKA [R21T]
3. QTELETIYVTKEHLQETDVVRAVYRVLKNCPSVALKKKAKCLLSKWKA [L1Q]
4. LTELETIYVTKEYLQETDVVRAVYRVLKNCPSVALKKKAKCLLSKWKA [H13Y]
5. LTELETIYVTKEHLQKTDVVRAVYRVLKNCPSVALKKKAKCLLSKWKA [E16K]
6. LTELETIYVTKEHLQETDVVRAVYRVLKNCPSVALKKKAKCLLSGWKA [K45G]
7. LTELETIYVTKEHLQETDVVRAVYRVLKNCPSVALKKKAKCLLSKWIA [K47I]

**Result**
1: -0.811; 2: -0.413; 3: 0.202; 4: -0.479; 5: -0.152; 6: -0.894; 7: -0.47

Quick one: give me abundance fitness for each item below, same order please.
1. LTELETIYVTKEELQETDVVRAVYRVLKNCPSVALKKKAKCLLSKWKA [H13E]
2. LTELETIYVSKEHLQETDVVRAVYRVLKNCPSVALKKKAKCLLSKWKA [T10S]

**Result**
[0.262, -0.121]

**Query** Look at this variant and give its reported abundance fitness. LTELETIYVTKEHLQETDVVRAVYRLLKNCPSVALKKKAKCLLSKWKA [V26L]
**Result** -0.172
